# subject_of_test: human DGKζ (Homo sapiens)
# Construct: TVMV protease cleavage site (C); Hexa-His (C); made in house; host or cells: Sf9 insect cells (baculovirus, Bac-to-Bac)
# Sequence (Q13574 with tags, fused parts or gaps isoform Q13574-4): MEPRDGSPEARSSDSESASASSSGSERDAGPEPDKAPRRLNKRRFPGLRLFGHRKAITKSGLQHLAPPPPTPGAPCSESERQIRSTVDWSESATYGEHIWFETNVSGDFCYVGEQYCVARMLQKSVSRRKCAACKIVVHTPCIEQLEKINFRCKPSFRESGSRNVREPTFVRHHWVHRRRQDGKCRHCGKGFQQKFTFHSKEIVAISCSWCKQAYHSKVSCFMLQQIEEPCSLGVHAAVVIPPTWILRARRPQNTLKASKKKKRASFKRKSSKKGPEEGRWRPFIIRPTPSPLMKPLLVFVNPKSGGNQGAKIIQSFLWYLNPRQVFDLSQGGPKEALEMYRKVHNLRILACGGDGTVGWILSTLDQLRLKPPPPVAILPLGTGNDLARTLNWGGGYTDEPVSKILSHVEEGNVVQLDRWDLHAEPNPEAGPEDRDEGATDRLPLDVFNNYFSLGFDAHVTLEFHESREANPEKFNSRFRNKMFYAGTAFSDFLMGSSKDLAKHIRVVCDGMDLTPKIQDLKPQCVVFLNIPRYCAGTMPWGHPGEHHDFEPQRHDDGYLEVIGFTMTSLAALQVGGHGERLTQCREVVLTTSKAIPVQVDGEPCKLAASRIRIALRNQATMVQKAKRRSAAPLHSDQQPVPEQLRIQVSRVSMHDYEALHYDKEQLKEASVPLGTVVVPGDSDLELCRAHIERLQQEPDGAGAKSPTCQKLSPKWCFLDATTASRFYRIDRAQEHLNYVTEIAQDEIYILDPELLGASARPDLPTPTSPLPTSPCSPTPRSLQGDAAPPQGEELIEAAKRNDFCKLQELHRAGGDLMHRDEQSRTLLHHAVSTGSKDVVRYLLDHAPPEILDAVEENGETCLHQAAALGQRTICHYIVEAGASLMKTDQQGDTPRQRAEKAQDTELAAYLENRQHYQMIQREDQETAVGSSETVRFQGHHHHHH
# assay_method_text: DGKζ LIPGLO assay (extruded liposome substrate), in vitro DGK inhibition
# Assay type: biochemical
# measurement_conditions: liposome (LIPGLO) assay; read-out: DGKz LIPGLO IC50
Here, each record is paired with measured IC50 data.
Could you kindly put the unit after your number?

- compound: "CC[C@@H]1CN(c2cc(=O)n(C)c3ccc(C#N)nc23)[C@@H](C)CN1Cc1ccccc1"
  result: "1000 nM"
- compound: "C[C@@H]1CN(c2cc(=O)n(C)c3ccc(C#N)nc23)[C@@H](C)CN1C(c1ccccc1)c1ccc(F)cc1F (stereo partly drawn)"
  result: "1100 nM"

Consider the additional compound presented here.
// sample COC(=O)C1CN(c2c(C#N)c(=O)n(C)c3ccc(C#N)nc23)CCN1C(c1ccc(F)cc1)c1ccc(F)cc1 (single isomer, unassigned) [Example 50] , its IC50 was 750 nM
